pIC50: −log10 of the molar value.
Here's a roundup of pIC50 values tested on Ribosomal protein S6 kinase alpha-3 (Homo sapiens), taken from various published works.
measure_name: pIC50

[[record]]
molecule = "O=C(Nc1cc(-c2ccc(F)cc2)on1)c1ccc2cc3n(c2c1)CCCNC3=O"
test_result = 6.81


[1] CC1CCNC(=O)c2cc3ccc(C(=O)Nc4cc(Cc5ccccc5)on4)nc3n21 (stereo not shown)
[2] Cc1cc(C)cc(Cn2cc(NC(=O)c3ccc4cc5n(c4c3)CCCNC5=O)cn2)c1
[3] C[C@@H]1CNC(=O)c2cc3ccc(C(=O)Nc4cnn(Cc5cccc(N)c5)c4)nc3n21
Qu. Task field, ranking: reported pIC50, descending order. Put the labels in the order asked and list them.
Ans. 2, 1, 3

###

Field: pIC50. System: Ribosomal protein S6 kinase alpha-3 (Homo sapiens). Provenance: assorted publications.
pIC50: −log10 of the molar value.
measure_name: pIC50

[[record]]
molecule = "C[C@H]1NC(=O)c2cc3ccc(C(=O)Nc4cnn(C)c4)cc3n2[C@H]1C (relative stereo)"
measure_name = "pIC50"
test_result = 8.37

[[record]]
molecule = "Cc1cc(NC(=O)c2ccc3cc4n(c3c2)C(C)CNC4=O)no1 (stereo not drawn)"
measure_name = "pIC50"
test_result = 7.47

[[record]]
molecule = "CN1CCC(n2c(NC(=O)c3ccc4cc5n(c4c3)CCCNC5=O)nc3ccccc32)CC1"
measure_name = "pIC50"
test_result = 7.85

[[record]]
molecule = "Cn1c(NC(=O)c2ccc3cc4n(c3c2)CC(C)(C)CNC4=O)nc2ccccc21"
measure_name = "pIC50"
test_result = 7.70

[[record]]
molecule = "C[C@H]1CNC(=O)c2cc3ccc(C(=O)Nc4nc5ccccc5n4CCCN(C)C)cc3n21"
measure_name = "pIC50"
test_result = 7.82


[1] CCn1c(NC(=O)c2ccc3nc4n(c3c2)CCCNC4=O)nc2ccccc21
[2] CN1CCN(C(=O)N2Cc3nc(Nc4ccccc4)ncc3C2(C)C)CC1(C)C
Qu. Sort 1 and 2 by pIC50 descending and give the first. Lab note: record the label of whichever item you select.
Ans. 1
